# maps each entry to its collision cross section
assay.procedure: collision cross section (TIMS, N2 drift gas) of the primary ion; higher = larger gas-phase ion size
condition.info: ionization mode: ESI+; ion species: [M]+
Report the figure in Å² without appending any unit label.

Worked examples follow.
CCCCCCCCCCCCCCCC[N+](C)(C)C
196.39
C[N+](C)(C)CC(O)CCl (centres undefined) [(3-Chloro-2-hydroxypropyl)trimethylammonium]
127.94

collision cross section reading for CCCCCCCCCCCC[N+](C)(C)C : 176.31

collision cross section reading for COC[P+](c1ccccc1)(c1ccccc1)c1ccccc1 : 170.42

collision cross section reading for CCCCCCCCCC[N+](C)(C)Cc1ccccc1 : 183.77

collision cross section reading for CCCC[N+](CCCC)(CCCC)CCCC : 167.79

collision cross section reading for CCCCCCCCCCCCCCCCCC[N+](C)(C)CCCCCCCCCCCCCCCCCC : 272.56

collision cross section reading for CCCCCCCCCCCCCCCC[n+]1ccccc1 : 197.5

collision cross section reading for CCCCCCCCCCCCCC[N+](C)(C)Cc1ccccc1 : 204.79

====

assay.procedure: collision cross section (TIMS, N2 drift gas) of the primary ion; higher = larger gas-phase ion size
condition.info: ionization mode: ESI-; ion species: [M-H]-
measured.attribute: collision cross section (Å²)
Report the figure in Å² without appending any unit label.

N#Cc1c(Cl)c(Cl)c(S(=O)(=O)O)c(C(N)=O)c1Cl
154.35

collision cross section reading for C[C@H](CCC(=O)O)[C@H]1CC[C@H]2[C@@H]3[C@H](O)C[C@@H]4C[C@H](O)CC[C@]4(C)[C@H]3CC[C@]12C : 209.87

collision cross section reading for CC(=O)[C@@]1(O)CC[C@H]2[C@@H]3C[C@H](C)C4=CC(=O)CC[C@]4(C)[C@H]3CC[C@@]21C : 188.11

collision cross section reading for N#Cc1c[nH]cc1-c1cccc2c1OC(F)(F)O2 : 145.03

collision cross section reading for COC(=O)Nc1nc2ccc(C(=O)c3ccccc3)cc2[nH]1 : 173.87

collision cross section reading for Oc1ccc(Cl)cc1Cc1cc(Cl)ccc1O : 155.04

collision cross section reading for Oc1ccc(C(c2ccc(O)cc2)(C(F)(F)F)C(F)(F)F)cc1 : 165.55

====

# maps each entry to its reversed-phase LC retention time
assay.procedure: reversed-phase LC retention time (C18, 15 min MeOH gradient); higher = more hydrophobic / later elution
condition.info: ionization mode: ESI+; ion species: [M+H]+
Report the figure in min without appending any unit label.

Worked examples follow.
CCC(=O)O[C@]1(C(=O)CCl)[C@@H](C)C[C@H]2[C@@H]3CCC4=CC(=O)C=C[C@]4(C)[C@@]3(F)[C@@H](O)C[C@@]21C [Clobetasol propionate]
15.2
CCCCc1ncc(/C=C(\Cc2cccs2)C(=O)O)n1Cc1ccc(C(=O)O)cc1
11.2
CC(C)CC(C)NC1=CC(=O)C(Nc2ccccc2)=CC1=O (stereo not drawn)
15.6

reversed-phase LC retention time reading for Cc1cc(Cc2ccc(N)c(C)c2)ccc1N : 8.47

reversed-phase LC retention time reading for CN(C)Cc1cc(C(C)(C)C)c(O)c(C(C)(C)C)c1 : 12.7

reversed-phase LC retention time reading for NC(=O)N1c2ccccc2C=Cc2ccccc21 [Carbamazepine] : 12.3

reversed-phase LC retention time reading for CC(=O)[C@@]1(O)CC[C@H]2[C@@H]3C[C@H](C)C4=CC(=O)CC[C@]4(C)[C@H]3CC[C@@]21C : 15.1

reversed-phase LC retention time reading for CN(C1CCCCC1)C1CCCCC1 : 9.45
